# assayed-target: recombinant cynomolgus monkey CD3ε/δ heterodimer (cynomolgus monkey) (UniProt Q95LI5)
# Sequence (Q95LI5 22-117, stated change not applied, chain 1 of 2): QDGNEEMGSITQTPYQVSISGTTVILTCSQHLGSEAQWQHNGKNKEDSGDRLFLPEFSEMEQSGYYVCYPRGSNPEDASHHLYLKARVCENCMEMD
# Sequence (Q95LI8 22-105, stated change not applied, chain 2 of 2, further chain): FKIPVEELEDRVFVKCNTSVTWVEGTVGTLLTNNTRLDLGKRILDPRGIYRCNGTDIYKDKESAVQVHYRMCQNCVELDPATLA
# assay-info: BLI (Octet), antigen on anti-Penta His sensor, antibody 50 nM
parameter: pKd
Just the number, please; pKd means minus log10 of the concentration in mol/L.

Previously resolved entries follow.
1) A07 (antibody, human IgG1, lambda, L234A L235A, V domains shown) VH: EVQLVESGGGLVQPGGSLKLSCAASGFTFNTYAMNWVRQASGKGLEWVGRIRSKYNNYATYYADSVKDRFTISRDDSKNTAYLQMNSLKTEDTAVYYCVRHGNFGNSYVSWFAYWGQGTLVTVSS VL: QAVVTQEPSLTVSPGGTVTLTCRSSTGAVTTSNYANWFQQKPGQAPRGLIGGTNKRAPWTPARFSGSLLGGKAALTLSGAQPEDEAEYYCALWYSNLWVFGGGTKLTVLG | 7.69
2) G16 (antibody, human IgG1, lambda, L234A L235A, V domains shown) VH: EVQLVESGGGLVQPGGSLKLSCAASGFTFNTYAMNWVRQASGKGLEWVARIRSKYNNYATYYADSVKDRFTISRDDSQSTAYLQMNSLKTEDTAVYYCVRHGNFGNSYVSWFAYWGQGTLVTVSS VL: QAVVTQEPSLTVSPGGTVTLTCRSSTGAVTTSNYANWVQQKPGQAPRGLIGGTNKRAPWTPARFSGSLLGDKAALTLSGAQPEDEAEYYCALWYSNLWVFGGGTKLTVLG | 8.76
3) A16 (antibody, human IgG1, lambda, L234A L235A, V domains shown) VH: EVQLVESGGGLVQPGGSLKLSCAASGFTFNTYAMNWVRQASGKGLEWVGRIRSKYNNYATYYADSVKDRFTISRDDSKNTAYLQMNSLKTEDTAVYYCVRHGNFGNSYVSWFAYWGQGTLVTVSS VL: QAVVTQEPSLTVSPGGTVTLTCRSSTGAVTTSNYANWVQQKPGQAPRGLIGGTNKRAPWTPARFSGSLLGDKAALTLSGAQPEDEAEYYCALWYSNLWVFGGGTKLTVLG | 9.18
4) H16 (antibody, human IgG1, lambda, L234A L235A, V domains shown) VH: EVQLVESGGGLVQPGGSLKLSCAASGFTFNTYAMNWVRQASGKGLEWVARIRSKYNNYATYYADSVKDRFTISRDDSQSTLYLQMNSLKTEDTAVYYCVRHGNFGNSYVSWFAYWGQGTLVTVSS VL: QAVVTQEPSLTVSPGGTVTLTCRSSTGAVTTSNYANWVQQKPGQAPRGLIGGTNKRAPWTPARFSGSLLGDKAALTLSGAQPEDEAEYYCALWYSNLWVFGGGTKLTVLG | 8.95

Q: Consider the binder shown here: G15 (antibody, human IgG1, lambda, L234A L235A, V domains shown) VH: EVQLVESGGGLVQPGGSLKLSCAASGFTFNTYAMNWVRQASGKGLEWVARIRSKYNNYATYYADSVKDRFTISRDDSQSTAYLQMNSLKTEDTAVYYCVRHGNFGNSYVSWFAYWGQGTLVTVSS VL: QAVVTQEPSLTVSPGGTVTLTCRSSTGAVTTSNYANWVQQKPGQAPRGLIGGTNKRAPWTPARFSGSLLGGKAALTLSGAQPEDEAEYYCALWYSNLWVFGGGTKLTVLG What is its recorded pKd?
Result: 8.76
